B1: library; numbered along this chain (parent)
chain: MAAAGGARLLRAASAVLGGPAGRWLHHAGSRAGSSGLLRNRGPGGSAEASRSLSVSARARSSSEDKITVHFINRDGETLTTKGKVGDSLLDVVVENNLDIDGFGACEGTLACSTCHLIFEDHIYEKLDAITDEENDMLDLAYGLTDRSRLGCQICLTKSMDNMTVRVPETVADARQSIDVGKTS

variants of: B1; experiment: scaled log2 fold change in cell abundance, elesclomol vs control (0 = silent mean, 1 = nonsense mean) (scaled log2 ratio); higher = higher viability under elesclomol (loss of FDX1 cuproptosis function); conditions: with HEK293T FDX1 KO; elesclomol 40 nM; glucose 10 mM; 11 days;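 also: variant abundance is its share of total variant reads in each endpoint sample, from next-generation sequencing of the integrated ORF PCR-amplified out of genomic DNA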
scaled log2 fold change class ranges: class 0: < -0.1; class 1: ≥ -0.1 and < 0.4; class 2: ≥ 0.4

- mutation_descriptor: "R11G"
  class_name: "class 0"
- mutation_descriptor: "I67D"
  class_name: "class 2"
- mutation_descriptor: "L127N"
  class_name: "class 2"
- mutation_descriptor: "L25M"
  class_name: "class 2"
- mutation_descriptor: "S88P"
  class_name: "class 0"

Lab note: sort R8W into the matching scaled log2 fold change band.
class 1

Let us now turn to R8Q
class 0

Let us now turn to L38H
class 1

Let us now turn to D91F
class 0

Let us now turn to G143M
class 0

Let us now turn to T131N
class 0

Let us now turn to R147H
class 0

Let us now turn to L140F
class 2

Let us now turn to G104N
class 2

Let us now turn to R74D
class 2

Let us now turn to T183M
class 0

Let us now turn to P43S
class 0
